- Test system: P-gp and BCRP
- EXPERIMENTAL DETAILS: P-gp and BCRP substrate assessment, bidirectional permeability in C2BBe1 cells
- CONDITION DETAILS: human, Caco-2, pH 7.4, AP-to-BL Recovery, C2BBe1 cells, 10 μM probe, batch used with Sol_1, Sol_3, and Sol_4; Average
OBSERVATION TYPE: recovery at 10 μM (%)
The reply should contain only the number, in %.

Fill: recovery at 10 μM (P-gp and BCRP) for this compound `C[C@H]1O[C@@H](O[C@H]2[C@@H](O)C[C@H](O[C@H]3[C@@H](O)C[C@H](O[C@H]4CC[C@@]5(C)[C@H](CC[C@@H]6[C@@H]5C[C@@H](O)[C@]5(C)[C@@H](C7=CC(=O)OC7)CC[C@]65O)C4)O[C@@H]3C)O[C@@H]2C)C[C@H](O)[C@@H]1O`
89.5

###

- TEST TARGET: CYP2B6 (Homo sapiens)
- Sequence (P20813 1-491): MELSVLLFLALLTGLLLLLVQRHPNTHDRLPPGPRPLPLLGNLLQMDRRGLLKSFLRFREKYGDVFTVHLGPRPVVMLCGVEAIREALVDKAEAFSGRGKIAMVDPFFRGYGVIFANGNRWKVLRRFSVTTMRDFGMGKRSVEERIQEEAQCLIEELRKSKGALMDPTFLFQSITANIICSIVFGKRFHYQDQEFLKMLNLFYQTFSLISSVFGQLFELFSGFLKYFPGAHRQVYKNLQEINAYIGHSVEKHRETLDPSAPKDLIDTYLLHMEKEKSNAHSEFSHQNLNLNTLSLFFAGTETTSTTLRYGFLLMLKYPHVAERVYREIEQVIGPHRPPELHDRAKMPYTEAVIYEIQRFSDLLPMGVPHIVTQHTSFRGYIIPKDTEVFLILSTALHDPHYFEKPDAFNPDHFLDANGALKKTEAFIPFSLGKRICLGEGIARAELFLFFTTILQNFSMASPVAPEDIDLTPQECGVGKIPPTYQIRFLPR
- EXPERIMENTAL DETAILS: Time-dependent inhibition (TDI) of CYP in HLM, 30 min pre-incubation ±NADPH
- CONDITION DETAILS: microsomes, pH 7.4, % of Control Enzyme Activity, +NADPH 30 min, 30.0 μM
- Method: CYP TDI was evaluated by a 30-minute pre-incubation of the TA with HLM in the presence and absence of NADPH followed by the CYP enzyme activity assay. […] The total organic solvent content in the final incubation was less than 1% (DMSO ≤0.1%, other organic solvent ≤1%). […] The formation of individual CYP probe metabolites was determined by LC-MS/MS. The enzyme activity was expressed as the peak area ratio of CYP probe metabolite to IS, measured by LC-MS/MS.
OBSERVATION TYPE: activity at 30 min, 30 µM (%)
The reply should contain only the number, in %.

Consider the molecule `S=P(N1CC1)(N1CC1)N1CC1` and give its recorded activity at 30 min, 30 µM.
11.6

###

Known fraction unbound of a selection of compounds
- EXPERIMENTAL DETAILS: Human Plasma Protein Binding
- Format: in vitro ADME
Output spec: single numeric token, no unit.

O=C(O)CCCc1ccccc1 [PB, sodium phenylbutyrate]	0.179

Consider the compound C[C@H](CCC(=O)NCCS(=O)(=O)O)[C@H]1CC[C@H]2[C@@H]3[C@@H](O)C[C@@H]4C[C@H](O)CC[C@]4(C)[C@H]3CC[C@]12C [TUDCA, tauroursodeoxycholic acid] and give its recorded fraction unbound.
0.015
